# target-desc: cynomolgus monkey EpoR (cynoEpoR) (cynomolgus monkey)
# Sequence (chain, as listed by the source): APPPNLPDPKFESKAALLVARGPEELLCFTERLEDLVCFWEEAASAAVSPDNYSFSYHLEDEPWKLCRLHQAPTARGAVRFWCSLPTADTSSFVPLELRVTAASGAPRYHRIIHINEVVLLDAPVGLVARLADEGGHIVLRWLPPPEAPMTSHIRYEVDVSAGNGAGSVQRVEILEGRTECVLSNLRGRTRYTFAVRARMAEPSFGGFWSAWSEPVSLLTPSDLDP
# assay-overview: SPR, Biacore T100; scFv-Fc captured by anti-human IgG Fc on CM5 chip, EpoR as analyte
Examples of binders with documented Kd follow.
Record the value in nM, omitting the unit from your answer.

binder	assay-metric	recorded-result
clone 16 scFv-Fc protein (Fc fusion, part only; not given: scFv linker and IgG1 Fc, not shown: a dimerising Fc or GST) scFv, part: QVQLQESGPGLVKPSETLSLTCTVSGGYINNYYWSWIRQPPGKGLEWIGYIHYSGSTYYNPSLKSRVTISEDTSKNQFSLKLSSATAADTAVYYCARVGYYYDSSGYNLAWYFDLWGRGTLVTVSASSELTQDPAVSVALGQTVRITCQGDNLRSYSATWYQQKPGQAPVLVLFGENNRPSGIPDRFSGSKSGDTAVLTITGTQTQDEADYYCTSRVNSGNHLGVFGPGTQLTVL	Kd	4360

Name the reported Kd value associated with the binder clone 319 scFv-Fc protein (Fc fusion, part only; not given: Linker and IgG1 Fc, not shown: another chain or arm of the molecule; a dimerising Fc or GST; small tags and cut ends) VH: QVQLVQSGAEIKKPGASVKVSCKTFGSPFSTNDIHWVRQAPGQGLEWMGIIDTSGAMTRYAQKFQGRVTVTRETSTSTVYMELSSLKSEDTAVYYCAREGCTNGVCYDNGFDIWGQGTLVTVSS VL: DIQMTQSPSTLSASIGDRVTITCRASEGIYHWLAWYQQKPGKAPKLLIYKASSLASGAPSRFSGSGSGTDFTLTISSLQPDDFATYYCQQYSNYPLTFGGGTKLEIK
121
